These data points were gathered from the array DNA melting data of Ke et al. (doi:10.1101/2024.01.08.574731).

# Assay Info: melting temperature; fluorescence melt of hairpins on a sequencing array, two-state fit, raised by 9.35 °C to match UV melts
# Condition Label: sodium 0.088 M
# maps each entry to its Tm
Readout Label: Tm (°C)

1. GGTTAGAAATAACC (((((....))))): 40
2. GATCTCTAAAGAGATC ((((((....)))))): 51.4
3. GCTGGGGGAAACCCTGGC ((..(((....)))..)): 49.1
4. GCGGAGAGCCGC ((((....)))): 54.4
5. GCCTTCGAAAGAAGTGGC ((((((....)))..))): 44.5
6. GGACTTCGAAAGAATTCC (((.(((....))).))): 36.8
7. GCTGACGGAAACGTCGGC ((.((((....)))).)): 63.3
8. GAGTAGGCGAAAGCCCTC (((..(((....)))))): 35.4
9. GTGGACGAAAGTCGCAC ((((((....))).))): 50.4
10. GTAAAACGAAAGTTCTAC (((.(((....))).))): 27.6
11. GGAGTAGGAAACTACCCC ((.((((....)))).)): 35.1
12. GATCGGGTGACCGATC ((((((....)))))): 67

---

# Assay Info: melting temperature; fluorescence melt of hairpins on a sequencing array, two-state fit, raised by 9.35 °C to match UV melts
# Condition Label: sodium 0.088 M
Threshold 50 °C. Tm below it: Satisfied. Tm at it or above: Not satisfied.

1) GTTTCGGGAAACTGAAAC (((((.(....).))))): Satisfied
2) GTACACGGAAACGTGTAC (((((((....))))))): Not satisfied
3) GAGAGCCGAAAGGCCTC (((.(((....)))))): Not satisfied
4) GCAGTCGAAAGACGCTGC ((((((....)))..))): Not satisfied
5) GGGACGCCGAAAGGCCCC (((..(((....)))))): Satisfied
6) GAAGCGGCGAAAGCCTTC (((..(((....)))))): Satisfied
7) CGCGCGGAAACGCTGGCG ((((((....)))..))): Not satisfied
8) GAAGGTGGAAACACTTTC (((.(((....))).))): Satisfied
9) GCTTGCGAAAGCACCAGC ((((((....)))..))): Satisfied
10) GCGTACGAAAGTAATCGC ((((((....)))..))): Satisfied
11) GGACTGAAAAGTCC (((((....))))): Not satisfied

---

# Assay Info: folding enthalpy; higher = less favourable; fluorescence melt of hairpins on a sequencing array, two-state fit
# Condition Label: sodium 0.088 M
Property: folding enthalpy; scope: individual sequences
Readout Label: folding enthalpy (kcal/mol)

1. CGCTAGAAATAGCG (((((....))))): -24.9
2. GCTGCCGAAAGGCACAGC ((((((....)))..))): -13.4
3. GATCAAAAATTTGATC ((((((....)))))): -28.7
4. GCAATGCGAAAGCTTGGC ((.(.((....)).).)): -19.1
5. GTGTATCGAAAGATTCAC (((.(((....))).))): -36.9
6. GGGTTGCCGAAAGGCCCC (((..(((....)))))): -14.5
7. GGTTTCGAAAGAAATACC ((((((....)))..))): -19.6
8. GCGGTCGAAAGACGGCGC ((((((....)))..))): -31.3
9. GTTGCCTCGAAAGAGAAC (((..(((....)))))): -12.1
10. GATCCATAGTGGATC ((((((...)))))): -38.1
11. GACAGCGCGAAAGCGGTC (((..(((....)))))): -11.4
12. GTTTTTACGAAAGTAAAC (((..(((....)))))): -17.1
